- study-target: Nicotinamide N-methyltransferase (Homo sapiens)
- assay-text: qHTS Assay for Inhibitors of N-terminal methyltransferase 1 (NTMT1): NNMT MTaseGlo counterscreen assay
- measurement-parameters: NNMT enzyme, MTase-Glo luminescence counterscreen; series mostly up to 57.1 µM
Records with an inconclusive call do not appear. Active and inactive are the calls of the source. The call rests on the fitted dose curve; in most records, active means well fitted inhibition curve with a large enough effect; inconclusive means small, poorly fitted or top-dose-only effect; inactive means no such curve, though single readings can be large or run the other way.
Outcome codes: active, inactive

OCC1OC(n2cnc3c(NCc4ccco4)ncnc32)C(O)C1O (stereo not drawn) : inactive
CSc1ccc(C(=O)c2[nH]c(=O)[nH]c2C)cc1 : inactive
Nc1nc(Cl)nc2c1ncn2[C@@H]1O[C@H](CO)[C@@H](O)[C@@H]1F : inactive
Cc1cc(C)c(/C=C2\C(=O)Nc3ccccc32)[nH]1 : inactive
CNC(=O)c1cnn(-c2nc(N)c3ncn([C@@H]4O[C@H](CO)[C@@H](O)[C@H]4O)c3n2)c1 : inactive
C#CCN(C)CCCOc1ccc(Cl)cc1Cl : inactive
COc1cc(CNC(=O)CCCCCCC(C)C)ccc1O : inactive
Cc1nnc(SCC2=C(C(=O)O)N3C(=O)[C@@H](NC(=O)Cn4cnnn4)[C@H]3SC2)s1 : inactive
O=c1c(-c2ccc(O)cc2)coc2cc(O)cc(O)c12 : inactive
CN1Cc2sccc2C(c2ccc(O)c(O)c2)C1 (stereo not drawn) : inactive
OCCNc1ncnc2c1ncn2[C@@H]1O[C@@H](CO)[C@H](O)[C@@H]1O : inactive
Clc1nccc2c1ccc1ccccc12 : inactive
C=CCN1CCc2cc(O)c(O)cc2[C@H](c2ccccc2)C1 : inactive
NCC(O)C1CCCCCCC1 (stereo not drawn) : inactive
S=C(S)N1CCCC1 : active
COc1cc2c(NC3CCN(CC4CCCCC4)CC3)nc(N3CCCCC3)nc2cc1OCCCN1CCCCC1 : inactive
CC[N+](CC)(CC)CCOc1cccc(OCC[N+](CC)(CC)CC)c1OCC[N+](CC)(CC)CC : inactive
O=C1Nc2ccc(I)cc2/C1=C/c1cc(Br)c(O)c(Br)c1 : active
COC(=O)[C@@H]1[C@H]2C[C@H]3c4[nH]c5ccccc5c4CCN3C[C@@H]2CC[C@@H]1O : inactive
Cc1cccc(C2CN(C)CCc3c2cc(O)c(O)c3Cl)c1 (stereo not drawn) : inactive
c1cc(CN2CCCCC2)cc(OCCCNc2nc3ccccc3s2)c1 : inactive
N=C(N)c1ccc(OCCCCCOc2ccc(C(=N)N)cc2)cc1 (tested in a mixture with another compound) : inactive
Nc1[nH]c(=O)nc2c1ncn2C1OC(CO)C(O)C1O (stereo not drawn) : inactive

====

- study-target: Nicotinamide N-methyltransferase (Homo sapiens)
- assay-text: qHTS Assay for Inhibitors of N-terminal methyltransferase 1 (NTMT1): NNMT MTaseGlo counterscreen assay
- measurement-parameters: NNMT enzyme, MTase-Glo luminescence counterscreen; series mostly up to 57.1 µM
Results filed as inconclusive are left out. Calls of active or inactive are those of the source. Calls come from the whole dose curve; as a rule, active = well fitted inhibition curve with a large enough effect; inconclusive = small, poorly fitted or top-dose-only effect; inactive = no such curve, though single readings can be large or run the other way.
Outcome codes: active, inactive

CC(C)NCC(O)c1ccc(O)c(O)c1 (stereo unspecified) : inactive
COc1cc2c(NC3CCN(C(C)C)CC3)nc(N3CCCN(c4ccccc4)CC3)nc2cc1OCCCN1CCCC1 : inactive
O=Nc1ccc2oc(=O)ccc2c1 : inactive
N#C/C(=C\c1ccc(O)c(O)c1)C(=O)Nc1ccccc1 : inactive
CC/C(=C(\c1ccccc1)c1ccc(OCCN(C)C)cc1)c1ccccc1 : inactive
[N-]=[N+]=Nc1nc2c(N)ncnc2n1C1OC(CO)C(O)C1O (stereo unspecified) : inactive
COc1cccc(OC)c1OCCNCC1CSc2ccccc2O1 (stereo unspecified) : inactive
O=C(N[C@@H](Cc1ccccc1)C(=O)CCl)OCc1ccccc1 : inactive
O=C1c2c(O)cc(O)cc2OC(c2ccc(O)c(O)c2)C1O (stereo unspecified) : inactive
Nc1ccnc2c1ncn2[C@@H]1O[C@H](CO)[C@@H](O)[C@H]1O : active
CN(C)CCCN1c2ccccc2Sc2ccccc21 : inactive

====

- study-target: Nicotinamide N-methyltransferase (Homo sapiens)
- assay-text: qHTS Assay for Inhibitors of N-terminal methyltransferase 1 (NTMT1): NNMT MTaseGlo counterscreen assay
- measurement-parameters: NNMT enzyme, MTase-Glo luminescence counterscreen; series mostly up to 57.1 µM
Inconclusive results are not listed. Activity calls are given as the source filed them. Calls follow the shape of the dose curve; as a rule, active = well fitted inhibition curve with a large enough effect; inconclusive = small, poorly fitted or top-dose-only effect; inactive = no such curve, though single readings can be large or run the other way.
Possible outcomes: 1 = active, -1 = inactive

CCN1CCC[C@H]1CNC(=O)c1cc(S(N)(=O)=O)ccc1OC : -1
COc1cc2c(NC3CCN(C)CC3)cc(N3CCCCN(C)CC3)cc2cc1OCCOCCN(C)C : -1
CSc1nc(N)c2ncn([C@@H]3O[C@H](COP(=O)(O)OP(=O)(O)OP(=O)(O)O)[C@@H](O)[C@H]3O)c2n1 : -1
COC(=O)[C@H]1[C@H]2C[C@H]3c4[nH]c5ccccc5c4CCN3C[C@H]2CC[C@@H]1O : -1
OC[C@H]1O[C@@H](n2cnc3c(NCc4ccco4)ncnc32)[C@H](O)[C@@H]1O : -1
Oc1cc2c(cc1O)C(c1ccccc1)CNCC2 (stereo unspecified) : -1
CC(C)=CCNc1ncnc2c1ncn2[C@@H]1O[C@H](CO)[C@@H](O)[C@H]1O : -1
C=Cc1c(C)c2cc3[nH]c(cc4nc(cc5nc(cc1[nH]2)C(C)=C5CCC(=O)O)C(CCC(=O)O)=C4C)c(C)c3C=C : -1
COc1cc2nc(N3CCOCC3)nc(NC(C)C)c2cc1OC : -1
CCCCCCCCCCCCCCCCCC(=O)OC(CC(=O)O)C[N+](C)(C)C (stereo unspecified) : -1
C[C@]12C[C@H](O)[C@H]3[C@@H](CCC4=CC(=O)CC[C@@]43C)[C@@H]1CC[C@@H]2C(=O)CO : -1
Cc1[nH]c(=O)c(C#N)cc1-c1ccc2nccn2c1 : -1
CC1=C(\C=C/C(C)=C/C=C\C(C)=C\C(=O)O)C(C)(C)CCC1 : -1
Nc1ccc(CCNc2ncnc3c2ncn3C2OC(CO)C(O)C2O)cc1 (stereo unspecified) : -1
Brc1c(NC2=NCCN2)ccc2nccnc12 : -1
COc1ccc(C(=O)/C(Cc2cc(OC)c(OC)c(OC)c2)=C(\C(=O)O)c2ccc3c(c2)OCO3)cc1 : -1
Oc1ccc(Cn2cc[nH]c2=S)cc1 : -1
c1ccc(CN2CCC3(CCCc4ccccc43)CC2)cc1 : -1
C[N+]1(C)CCC(OC(=O)C(c2ccccc2)c2ccccc2)CC1 : -1
CCNC(=O)[C@H]1O[C@H](n2cnc3c(N)nc(NCCc4ccc(CCC(=O)O)cc4)nc32)[C@@H](O)[C@@H]1O : -1
CCN(CC)C(C)CN1c2ccccc2Sc2ccccc21 (stereo unspecified) : -1
CN(C)C(=O)/N=N/C(=O)N(C)C : -1
Cc1c(OCC(F)(F)F)ccnc1CS(=O)c1nc2ccccc2[nH]1 (stereo unspecified) : -1
CC(CN1c2ccccc2Sc2ccccc21)N(C)C (stereo unspecified) : -1
CC(C)NC[C@@H](O)c1ccc(O)c(O)c1 : -1
Nc1nc(=S)c2ncn([C@@H]3O[C@H](CO)[C@@H](O)[C@H]3O)c2[nH]1 : -1
Oc1ccc2ccccc2c1SSc1c(O)ccc2ccccc12 : -1
CN=c1nc(-c2ccccc2)n(-c2ccccc2)s1 : -1
CN(C)c1ccc(/C=C2\C(=O)Nc3ccccc32)cc1 : 1
COc1cc2c(NC3CCN(C)CC3)nc(N3CCCCC3)nc2cc1OCCCN(C)C : -1
CN(C)CCCN1c2ccccc2Sc2ccc(C(F)(F)F)cc21 : -1
CC#C[C@]1(O)CC[C@H]2[C@@H]3CCC4=CC(=O)CCC4=C3[C@@H](c3ccc(N(C)C)cc3)C[C@@]21C : -1
OC[C@H]1O[C@@H](n2cnc3cncnc32)[C@H](O)[C@@H]1O : 1
C=CCN1CCc2c(cc(O)c(O)c2Cl)C(c2ccccc2)C1 (stereo unspecified) : -1
COc1cc2nc(N3CCCN(C)CC3)nc(N3CCN(C)CC3)c2cc1OC : -1
COc1cc2c(NC3CCN(C(C)C)CC3)nc(N3CCC(F)(F)CC3)nc2cc1OCCCN1CCCCC1 : -1
